Assignment: determine reported koff for the given binders.
target: T1, Histidine-tagged human CD40 protein (hCD40-His) (human, UniProt P25942 21-193); assay: SPR, Biacore T200; antibody on Protein A chip, hCD40-His injected; 1:1 fit
T1 construct: not shown: histidine tag
T1 sequence (P25942 21-193 limits assumed): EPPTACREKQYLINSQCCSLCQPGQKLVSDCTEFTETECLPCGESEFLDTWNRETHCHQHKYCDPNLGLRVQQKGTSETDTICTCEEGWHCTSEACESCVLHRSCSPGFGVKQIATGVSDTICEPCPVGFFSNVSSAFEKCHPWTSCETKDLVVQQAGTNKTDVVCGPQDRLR
Give just the numeric value; s⁻¹ need not be written.

Bench note: what koff did 4H6-H2K4-IgG4 (antibody, V domains shown, Humanized) VH: EVQLQESGPGLVKPSQTLSLTCTVSGDSVSSGYWNWIRKHPGKKLEWIGFISYSGSTYYTPSLKSRVTISRDTSKNQFSLKLSSVTAADTAVYYCARFRRYDDGVDYWGQGTLVTVSS VL: DIQMTQSPSAMSASVGDRVTLTCRASHEISGYLSWIQQKPGGTIKRLINAASTLASGVPSRFSGSRSGTEYTLTISSLQPEDFADYYCLQYSSYPWTFGGGTKLEIK show?
0.0742

Bench note: what koff did 7F10-H2K1-IgG4 (antibody, V domains shown, Humanized) VH: EVQLVESGGGLVQPGGSLRLSCATSGFTFSDYYMYWVRQAPGKRLEWVAYISYGGDSTFYPDTVRGRFTISRDNAKNSLYLQMSSLKAEDTAVYYCARPAPSAHSYYLDYWGQGTLLTVSS VL: DIQMTQSPSSLSASVGDRVTITCRASQDISNYLNWYQQKPGGAVKLLIYYTSRLHSGLPSRFSGSGSGTDFTFTISSLQPEDIATYYCQQGKTLPFTFASGTKLEIK show?
0.065

Bench note: what koff did 4H6-H1K1-IgG4 (antibody, V domains shown, Humanized) VH: QVQLQESGPGLVKPSQTLSLTCTVSGDSVSSGYWNWIRKHPGKKLEWIGFISYSGSTYYTPSLKSRVTISRDTSKNQFSLKLSSVTAADTAVYYCARFRRYDDGVDYWGQGTLVTVSS VL: DIQMTQSPSAMSASVGDRVTITCRASHEISGYLSWFQQKPGGVIKRLINAASTLASGVPSRFSGSRSGTEFTLTISSLQPEDFATYYCLQYSSYPWTFGGGTKLEIK show?
0.167

Bench note: what koff did 6A7-H3K1-IgG4 (antibody, V domains shown, Humanized) VH: QVQLVQSGAEVKKPGASVKVSCKASGYTFISYYIYWVRQAPGQGLEWIGGINPRNGGTNFNEKFKSRATLTVDTSISTAYMELSRLRSEDTAVYYCTRHGNGVYWGQGTTVTVSS VL: DVVMTQSPLSLPVTLGQPASISCRSSQSLLHSNGNTYLHWFQQRPGQSPRHLIYQVSNRFSGVPDRFSGSGSGTDFTLKISRVEAEDVGVYYCSQTTHVPWTFGGGTKVEIK show?
0.000574

Bench note: what koff did 6A7-H2K1-IgG4 (antibody, V domains shown, Humanized) VH: QVQLVQSGAEVKKPGASVKVSCKASGYTFISYYIYWVRQAPGQGLEWIGGINPRNGGTNFNEKFKSRATLTVDTSISTAYMELSRLRSEDTAVYYCARHGNGVYWGQGTTVTVSS VL: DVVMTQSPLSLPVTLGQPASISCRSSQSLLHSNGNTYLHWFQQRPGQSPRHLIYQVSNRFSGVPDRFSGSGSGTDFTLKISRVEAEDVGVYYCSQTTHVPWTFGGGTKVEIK show?
0.00708
